The measurements presented in this section are drawn from patent US9856242B2.

Target: CDK2/CycE (Homo sapiens)
Construct: GST; purchased ProQinase GmbH (Freiburg, Germany); host or cells: insect cells (Sf9)
Assay: CDK2/CycE kinase assay (Method 2a, TR-FRET, 10 μM ATP)
Type: biochemical
pIC50: −log10 of the molar value.
quantityName: pIC50

1. CS(=O)(=O)Cc1ccnc(Nc2cc(-c3ccc(F)c4ccoc34)c(F)cn2)c1
2. CS(=O)(=O)Cc1cc(Nc2cc(-c3ccc(F)c4ccoc34)c(F)cn2)nc(C(F)(F)F)c1
Request: // select label with min value of measured pIC50 from [ 1 , 2 ] Output the label that corresponds to your choice.
Response: 1

====

Molecular target: CDK2/CycE (Homo sapiens)
Construct: GST; purchased ProQinase GmbH (Freiburg, Germany); host or cells: insect cells (Sf9)
Test: CDK2/CycE kinase assay (Method 2a, TR-FRET, 10 μM ATP)
Type: biochemical
Description: 2a. CDK2/CycE Kinase Assay: CDK2/CycE-inhibitory activity of compounds of the present invention was quantified employing the CDK2/CycE TR-FRET assay as described in the following paragraphs: Recombinant fusion proteins of GST and human CDK2 and of GST and human CycE, expressed in insect cells (Sf9) and purified by Glutathion-Sepharose affinity chromatography, were purchased from ProQinase GmbH (Freiburg, Germany). […]
pIC50: −log10 of the molar value.
quantityName: pIC50

compound="Cc1cc(CS(C)(=O)=O)cc(Nc2cc(-c3ccc(F)c4ccoc34)c(F)cn2)n1 [Example 3]" readoutvalue=7.34
compound="CS(=O)(=O)Cc1ccnc(Nc2cc(-c3cccc4ccoc34)c(F)cn2)c1 [Example 5]" readoutvalue=7.16
compound="CS(=O)(=O)Cc1cc(F)nc(Nc2cc(-c3ccc(F)c4ccoc34)c(F)cn2)c1 [Example 2]" readoutvalue=7.15
